system: H1 or H9 human embryonic stem cells; assay: Activin A bioassay: differentiation of human embryonic stem cells to definitive endoderm, cell number and SOX17 intensity by high content analysis (96-well, four days); type: cell-based; conditions: supernatant concentration 50x, assay dilution 1:20; assay plates #008, #009;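 also: Raw total cell count per well from high content imaging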
Field: Cell Number average. Provide a value for each of the molecules that follow.

Query: Quote Cell Number average reported for ACTN31: activin A variant peptide, SEQ ID 32 (protein) GLECDGKVNTCCKKQLFVSFKDIGWNDWIIAPSGYHANHCSGKCPSHIAGTSGSSLSFHSTVINHYRMRGHSPFSDMGSCCIPTKLRPMSMLYYDDGQNIIKKDIQNMIVEECGCS please.
Reply: 11148

Query: Dear colleague, please send me the reported Cell Number average for ACTN48: activin A variant peptide, SEQ ID 49 (protein) GLECDGKVNLCCKKQNFVSFKDIGWNDWIIAPSGYHANECSGLCPSHIAGTSGSSLSFHSTVINHYRMRGHSPFANMGACCIPTKLRPMSMLYYDDGQNIIKKDIQNMIVEECGCS when you can.
Reply: 8941

Query: Please supply the value of reported Cell Number average for the item ACTN74: activin A variant peptide, SEQ ID 75 (protein) GLECDGKVNICCKKQSFGRAKDIGWNDWIIAPSGYHGGGCTGECPSHIAGTSGSSLSFHSTVINHYRMRGHSPFANLKSCCSPTKLRPMSMLYYDDGQNIIKKDIQGMVVEECGCT
Reply: 16143
